# STUDY_TARGET: calmodulin (Homo sapiens, UniProt P0DP23)
# METHOD: FCS
No end group written: not given here.
For each entry below, report its Kd value.
Unit nM implied. Number only.

Would you mind telling me what Kd value was observed for LRKRIVFRKI (also: fluorescent label, unspecified) ?
327

Would you mind telling me what Kd value was observed for FARLTRALTSSRGVL (also: fluorescent label, unspecified) [hEAG1 BD-N] ?
45

Would you mind telling me what Kd value was observed for RRLFQRFRQQK (also: fluorescent label, unspecified) [hEAG1 BD-C2] ?
223

Ref: paper PMC2877719
